Cited source: PubChem BioAssay (NCI)

- experiment summary: NCI Yeast Anticancer Drug Screen. Data for the bub3 strain (AID 167)
- settings: S. cerevisiae bub3 mutant strain, at 11.0 µM, stronger effect = higher value
About 79,000 compounds went through this panel and 15% of them were active in at least one assay; those are over-represented in the sample as a whole.
recorded metric: growth inhibition (%)

> print(dat)
                                   molecule    recorded.metric  assay.value
1  Cc1ccc2[nH]c3c(C)c4cc[n+](C)cc4c(C)c3c2c1  growth inhibition           23
2     CC(=O)Cc1ccc[cH-]1.[Fe+2].c1cc[cH-]c1  growth inhibition            7
3     c1ccc2c(c1)C(=NCCCN1CCCCCC1)c1cccn1-2  growth inhibition            0
4  CNC(=O)OCc1c(COC(=O)NC)c(-c2ccc(-c3ccccc3)cc2)n(C)c1C  growth inhibition          -15
5  CCOC(=O)[C@H]1Nc2ccccc2C2c3ccccc3CC21 (stereo partly specified)  growth inhibition           23
6              BrCc1cccc2ccc3cccc(CBr)c3c12  growth inhibition           -8

* * *

- experiment summary: NCI Yeast Anticancer Drug Screen. Data for the rad52 strain (AID 147);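 note: 0% = growth of vehicle-treated control cultures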
- settings: S. cerevisiae rad52 mutant growth inhibition; at 33.0 µM; stronger effect = higher value
The panel holds about 79,000 compounds, 15% with a hit somewhere; the sample as a whole holds those more often.
Class field: derived from growth inhibition; ranges zone 1: < 20%; zone 2: ≥ 20% and < 70%; zone 3: ≥ 70%

> print(dat)
                                   compound     cat
1    S=C(N/N=C(/c1ccccc1)c1ccccn1)N1CCCCCC1  zone 2
2  O=C(O)c1cccc(-c2c3ccc(=O)cc-3oc3cc(O)ccc23)c1  zone 2
3  C(CCSC1=NCCN1)CSC1=NCCN1 (tested in a mixture with another compound)  zone 3
4  Cc1ccc(S(=O)(=O)NC(=O)NC2=NC(C)(C)N(c3ccc(Cl)c(Cl)c3)C(N)=N2)cc1  zone 1
5  CC(=O)Oc1cc(-c2cc(OC(C)=O)c(OC(C)=O)c3ccccc23)c2ccccc2c1OC(C)=O  zone 1
6  COc1ccccc1N=NC(C(=O)c1ccccc1)C(=O)c1ccccc1  zone 3
7  CCCS(=O)(=O)Nc1ccc(Nc2c3ccccc3nc3ccccc23)c(OC)c1  zone 3
8                       CCCCCCCCCCNC(=O)OCC  zone 2
9       Brc1ccc(-c2cc3c(cc2C2SCCS2)OCO3)cc1  zone 1

* * *

- experiment summary: NCI Yeast Anticancer Drug Screen. Data for the mgt1 strain (AID 153)
- settings: S. cerevisiae mgt1 mutant growth inhibition; at 3.7 µM; stronger effect = higher value
This is part of a sample that, as a whole, favours compounds with a hit. Of some 79,000 tested, about 15% had one in any assay.
Listed here are compounds together with their documented growth inhibition.
recorded metric: growth inhibition (%)

> print(dat)
                                    compound    recorded.metric  unit.descriptor  assay.value
 1  O=C(CCCN1CCC2(CC1)CC(=O)N(N1CCCCCC1)C2=O)c1ccc(F)cc1  growth inhibition                %           45
 2  CC(=O)OCC(=O)C1(O)CCC2C3CCC4CCCCC4(C)C3CCC21C (configuration not stated)  growth inhibition                %            3
 3                        Cc1ccc2ccc(O)cc2c1  growth inhibition                %          -19
 4              COc1ccc2c(c1)C(=O)c1ccccc1C2  growth inhibition                %            2
 5               c1ccc2c(c1)sc1nc3ccncc3nc12  growth inhibition                %           -2
 6  O=C(CCCN1CCC(O)(c2ccc(Cl)cc2)CC1)c1ccc(F)cc1  growth inhibition                %           30
 7     Cc1cc(CO)c(O)c(CNCc2cc(C)cc(CO)c2O)c1  growth inhibition                %          -17
 8  Cc1ccc(S(=O)(=O)NNC(=S)Nc2cccc3ccccc23)cc1  growth inhibition                %           -4
 9  COc1ccccc1N=NC(C(=O)c1ccccc1)C(=O)c1ccccc1  growth inhibition                %          -24
10       COc1ccc(N=C2C(=O)Nc3ccc(Br)cc32)cc1  growth inhibition                %          -24
11  CCCCCCCCCCC1CCC(=O)O1 (configuration not stated)  growth inhibition                %           -1
12    S=C(N/N=C(/c1ccccc1)c1ccccn1)N1CCCCCC1  growth inhibition                %           -7

* * *

- experiment summary: NCI Yeast Anticancer Drug Screen. Data for the sgs1 strain (AID 173);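 note: 0% = growth of vehicle-only control cultures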
- settings: S. cerevisiae sgs1 mutant, at 11.0 µM, stronger effect = higher value
Compounds without any hit were thinned out: in the full panel of roughly 79,000, 15% have a hit.
Quick rule for you: growth inhibition at 20% or higher means 1 (yes), lower means 0 (no).

> print(dat)
                                    molecule      cat
 1        CC(=O)ON1C(=O)c2cccc3cccc(c23)C1=O  1 (yes)
 2               CSC(=S)N/N=C(\C)c1cccc(C)n1   0 (no)
 3  CCNc1nnc(CSc2nc(-c3ccccc3)c(-c3ccccc3)[nH]2)s1   0 (no)
 4      COc1ccc2sc3cccc(NCCN(C)C)c3c(=O)c2c1   0 (no)
 5  CN(N=O)N1C(=O)SCC(c2ccccc2)(c2ccccc2)C1=O   0 (no)
 6            O=C1c2ccccc2-c2n[nH]c3cccc1c23   0 (no)
 7     Cc1ccc(Cl)c2[nH]c(-c3ccccc3)cc(=O)c12   0 (no)
 8     Cc1c(Cl)ccc2c1S(=O)(=O)c1cccc(Cl)c1-2   0 (no)
 9             O=C(/C=C/c1cccc(Br)c1)c1cccs1  1 (yes)
10                          CSC1=NNC(SC)=NN1   0 (no)
11  CC(=O)Oc1cc(-c2cc(OC(C)=O)c(OC(C)=O)c3ccccc23)c2ccccc2c1OC(C)=O   0 (no)
12                NC(=S)N/N=C\c1nccc2ccccc12  1 (yes)
13            O=C(N=Nc1ccccc1Cl)NNc1ccccc1Cl   0 (no)
14  Cc1ccc(S(=O)(=O)NCCSS(=O)(=O)c2ccc(C)cc2)cc1  1 (yes)
15           c1ccc2c(c1)NC(NC1Nc3ccccc3N1)N2   0 (no)
16                            O=Nc1cccnc1N=O  1 (yes)
17  COc1cc(C2C3=C(COC3=O)Oc3cc4c(cc32)OCO4)ccc1O (centres undefined)   0 (no)
18                   O=S(=O)(CCCl)c1ccccc1Cl  1 (yes)
19  CCCN(CCC)CC(O)c1cc(-c2ccc(Cl)cc2)nc2c(C)c(Cl)ccc12 (centres undefined)  1 (yes)
20  [N-]=[N+]=NC1=C(c2ccccn2)C(=O)c2cccc3cccc1c23   0 (no)
21  CCOP(=O)(OCC)C(Cc1ccccc1)N=C(c1ccccc1)c1ccccc1 (centres undefined)   0 (no)
22  O=C(NCCCNCCCNC(=O)c1cc(-c2ccccc2)nc2ccccc12)c1cc(-c2ccccc2)nc2ccccc12   0 (no)
23          COc1cc(C(=O)/C=C/c2ccccc2O)ccc1O  1 (yes)
24         CC(C)/C(Cl)=N\OC(=O)Nc1cccc(Cl)c1   0 (no)
25  Nc1nc(-c2cccnc2)cc(-c2cc(-c3cccnc3)nc(N)n2)n1   0 (no)
26        CC(=O)OCCOCNC(=S)N/N=C(\C)c1cnccn1   0 (no)
27          CN(C)C[C@H]1CC[C@@H](CN(C)C)C1=O  1 (yes)
28          C/C(=N\NC(=S)SCc1ccccc1)c1ccccn1  1 (yes)
29  CCOC(=O)c1cc(-c2ccc(Cl)cc2)c([N+](=O)[O-])n1C  1 (yes)
30  CCS(=O)(=O)c1ccc(/C=C/C=N/NC(=S)NCC(C)C)cc1   0 (no)
31                      NNc1c(F)c(F)cc(F)c1F   0 (no)
32   COC(=O)c1cc(-c2ccc(C)cc2)[nH]c(=O)c1C#N   0 (no)
33              N#CN=Nc1cc(Cl)c(N=NC#N)cc1Cl   0 (no)
34  NCCNc1ccc(NCCN)c2c1C(=O)c1c(O)ccc(O)c1C2=O  1 (yes)
35                Cc1ccc(S/N=C\c2ccccc2O)cc1   0 (no)
36  COC(=O)C1=C(C)NC(C)=C(C(=O)OC)C1c1cccc(/[N+]([O-])=C/c2ccccc2)c1   0 (no)
37  COc1ccccc1C(=O)OCC1CCCN2CCCCC12 (centres undefined)  1 (yes)
38         O=[N+]([O-])c1cccc2nccc(NCCCO)c12  1 (yes)
39  O=C1C=CC(=O)c2c(O)c(Nc3ccc(OC(F)(F)F)cc3)c(Cl)c(O)c21  1 (yes)
40    S=C(N/N=C(/c1ccccc1)c1ccccn1)N1CCCCCC1   0 (no)
41                       CCCCCCCCCCNC(=O)OCC   0 (no)
42  c1ccc2c(c1)-c1nc3ccccc3cc1C2N1CCOCC1 (centres undefined)   0 (no)
43                        OC1CSCCCSCCSCCCSC1   0 (no)
44  O=C(NNc1ccnc2cc(Cl)ccc12)/C(=C\c1ccccc1Cl)NC(=O)c1ccccc1   0 (no)
45       Fc1ccc(NC(=S)SCc2ccc3c(c2)OCO3)cc1F  1 (yes)
46          S=C(N/N=C/c1ccccn1)Nc1ccc(Cl)cc1   0 (no)
47  CCCCCCCCCCCCCCCCCCN(C)CC(COP(=O)([O-])OCC[N+](C)(C)C)OC (centres undefined)  1 (yes)
48            CN(C)c1nc2sc3c(c2c(=O)o1)CCCC3   0 (no)
